system: PC-12; test: Neuroprotective activity against H202-induced cell death in rat PC-12 cells assessed as cell viability at 20 uM pretreated for 3 hrs followed by H2O2 stimulation and measured after 24 hrs by MTT assay relative to control; type: functional; conditions: time 27 hrs, read-out: Activity
quantity-kind: viability at 20 µM (%)

chemical_smiles=CC(C)CNCC(=O)Nc1ccc(-c2nc(-c3ccnc(Nc4ccc(OC(F)(F)F)cc4)c3)no2)cc1 unit_of_measurement=% measurement=43.9
chemical_smiles=O=C(CNc1ccc(F)cc1)Nc1ccc(-c2nc(-c3ccnc(Nc4ccc(OC(F)(F)F)cc4)c3)no2)cc1 unit_of_measurement=% measurement=66.4
chemical_smiles=Cc1ccc(NCC(=O)Nc2ccc(-c3nc(-c4ccnc(Nc5ccc(OC(F)(F)F)cc5)c4)no3)cc2)cc1 unit_of_measurement=% measurement=49.1
chemical_smiles=O=C(CNCc1ccc(C(F)(F)F)cc1)Nc1ccc(-c2nc(-c3ccnc(Nc4ccc(OC(F)(F)F)cc4)c3)no2)cc1 unit_of_measurement=% measurement=33
chemical_smiles=COc1cccc(NCC(=O)Nc2ccc(-c3nc(-c4ccnc(Nc5ccc(OC(F)(F)F)cc5)c4)no3)cc2)c1 unit_of_measurement=% measurement=33.7
chemical_smiles=O=C(CNc1ccc(C(F)(F)F)cc1)Nc1ccc(-c2nc(-c3ccnc(Nc4ccc(OC(F)(F)F)cc4)c3)no2)cc1 unit_of_measurement=% measurement=61.7
chemical_smiles=O=C(CNCc1ccccc1)Nc1ccc(-c2nc(-c3ccnc(Nc4ccc(OC(F)(F)F)cc4)c3)no2)cc1 unit_of_measurement=% measurement=53.5
chemical_smiles=O=C(CNc1ccc(Br)cc1)Nc1ccc(-c2nc(-c3ccnc(Nc4ccc(OC(F)(F)F)cc4)c3)no2)cc1 unit_of_measurement=% measurement=46.5
chemical_smiles=O=C(CNc1cccc(Cl)c1)Nc1ccc(-c2nc(-c3ccnc(Nc4ccc(OC(F)(F)F)cc4)c3)no2)cc1 unit_of_measurement=% measurement=37.7
chemical_smiles=O=C(CNc1ccccc1)Nc1ccc(-c2nc(-c3ccnc(Nc4ccc(OC(F)(F)F)cc4)c3)no2)cc1 unit_of_measurement=% measurement=58.4
chemical_smiles=O=C(CNC1CCCC1)Nc1ccc(-c2nc(-c3ccnc(Nc4ccc(OC(F)(F)F)cc4)c3)no2)cc1 unit_of_measurement=% measurement=57
chemical_smiles=Cc1cccc(NCC(=O)Nc2ccc(-c3nc(-c4ccnc(Nc5ccc(OC(F)(F)F)cc5)c4)no3)cc2)c1 unit_of_measurement=% measurement=50.7
chemical_smiles=O=C(CNCc1ccc(F)cc1)Nc1ccc(-c2nc(-c3ccnc(Nc4ccc(OC(F)(F)F)cc4)c3)no2)cc1 unit_of_measurement=% measurement=48.6
chemical_smiles=O=C(CNc1ccc(Cl)cc1)Nc1ccc(-c2nc(-c3ccnc(Nc4ccc(OC(F)(F)F)cc4)c3)no2)cc1 unit_of_measurement=% measurement=61.6
chemical_smiles=O=C(CNc1ccc(F)c(F)c1)Nc1ccc(-c2nc(-c3ccnc(Nc4ccc(OC(F)(F)F)cc4)c3)no2)cc1 unit_of_measurement=% measurement=45.8
chemical_smiles=O=C(CNc1cccc(F)c1)Nc1ccc(-c2nc(-c3ccnc(Nc4ccc(OC(F)(F)F)cc4)c3)no2)cc1 unit_of_measurement=% measurement=58.5
